- ASSAYED_SYSTEM: UniProt:P20813
- Sequence (P20813 whole entry): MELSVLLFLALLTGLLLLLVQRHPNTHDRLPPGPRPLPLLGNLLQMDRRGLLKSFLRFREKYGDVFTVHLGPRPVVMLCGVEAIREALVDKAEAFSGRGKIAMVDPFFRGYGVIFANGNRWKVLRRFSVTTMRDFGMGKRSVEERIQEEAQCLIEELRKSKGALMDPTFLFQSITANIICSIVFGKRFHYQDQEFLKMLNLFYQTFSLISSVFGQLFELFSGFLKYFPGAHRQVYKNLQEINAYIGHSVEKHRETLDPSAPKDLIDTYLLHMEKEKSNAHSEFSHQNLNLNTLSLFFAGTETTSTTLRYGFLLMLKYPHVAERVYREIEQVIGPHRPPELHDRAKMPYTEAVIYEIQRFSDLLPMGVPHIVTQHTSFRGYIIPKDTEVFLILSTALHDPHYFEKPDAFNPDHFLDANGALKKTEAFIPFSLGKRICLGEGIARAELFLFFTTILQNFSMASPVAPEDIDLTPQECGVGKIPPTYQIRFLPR
pIC50: −log10 of the molar value.

MOL_SMILES: Cc1nc2ccc(C(=O)N3CCC4(CC3)CC(=O)c3c(cnn3C(C)C)C4)cc2[nH]1
pIC50: < 4.52

* * *

pIC50: −log10 of the molar value.
pIC50, hACC2 (Homo sapiens), per-entry values.
RESULT_TYPE: pIC50

MOLECULE: CC(C)n1ncc2c1C(=O)CC1(CCN(C(=O)c3ccc4[nH]nc(C#N)c4c3)CC1)C2
RESULT_TYPE: pIC50
DATA_VALUE: 8.40
//
MOLECULE: CO[C@H]1CCCC[C@@H](c2ccccc2)OC(=O)[C@@H](C)[C@@]2(O)O[C@H]([C@@H](C)[C@H](O)[C@H]2OC)[C@@H](C)/C=C/[C@H]1OC [Example 9, reference compound]
RESULT_TYPE: pIC50
DATA_VALUE: 7.80
//
MOLECULE: CC(=O)N[C@@H](C)C#Cc1ccc(Oc2ccc(OC(C)C)cc2)cc1
RESULT_TYPE: pIC50
DATA_VALUE: 8.70
//
MOLECULE: Cc1nc2ccc(C(=O)N3CCC4(CC3)CC(=O)c3c(cnn3C(C)C)C4)cc2[nH]1
RESULT_TYPE: pIC50
DATA_VALUE: 7.57
//
MOLECULE: COc1ccc2ccc(C(=O)N3CCC4(CC3)CC(=O)c3c(cnn3C(C)C)C4)cc2c1
RESULT_TYPE: pIC50
DATA_VALUE: 8.40
//
MOLECULE: CC(=O)N[C@@H](C)c1cc(-c2cnc(Oc3ccc(OCC4CC4)cc3)s2)no1
RESULT_TYPE: pIC50
DATA_VALUE: 8.70
//
MOLECULE: CC(C)n1ncc2c1C(=O)CC1(CCN(C(=O)c3ccc4ccc(N)nc4c3)CC1)C2
RESULT_TYPE: pIC50
DATA_VALUE: 8.30
//
MOLECULE: CCOc1cc(C(=O)N2CCC3(CC2)CC(=O)c2cc(-c4cncc(C(N)=O)c4)ccc2O3)cc(OCC)c1-c1cccc(C(=O)O)c1
RESULT_TYPE: pIC50
DATA_VALUE: 8.30
